Experiment summary: yeast display, Sf9 membrane polyspecificity reagent, FACS + sequencing; frameworks hold sequencing errors
Attribute measured: polyreactivity (PSR sort gate)

Please review the entries below; each comes with its answer.
* QVQIVESGGGLVQAGGSLRLSCAASGRISEANAMGRYRQATWKERELVAAIDFSDGSTYYADSVKGRFTISRDNAKNTVYLQMNSLKPEDTAVYYCAADDQYYPYDYWGLGTQVTVSS | low polyreactivity
* QVQLVDSGGGLVQAGGSLRLSCAASGFTFVPYAMGWYRQAPGKERETNADSVKGRFTISRDNAKNTVYLQMNSLKPEDTAVYYCAAGGYGPYDYWGQGTQVTVSS | low polyreactivity
* QVQLVESGGGLVQAGGSLRLISPASRFTFRYYAMGWYRQAPGKERELVAAISRGGTTNYADSVKGRFTISRDNAKNTVYLQMNSLKPEDTAVYYCATTRYDYWGQGTQVTVSS | high polyreactivity
* QVQLVESGGGLVQAGGSLRLSCAASGNTFLRYAMGWYRQAPGKERELVAAISRSGGSTYYADSVKGRFTISRDNAKNTVYLQMNSLKPEDTAVYYCATRVYFSPYRYDYWGQGTQVTVSS | high polyreactivity
* QVQLVESGGGLVQAGGSLRLSCAPSGSIFFPYAIGWYRQAPGKESELVAAISYSGTSTYYADSVKGRFTISRDNAKNTVYLQMNSLIPEDTAVYYCAAEVIGRYIEYYYWGQGTQVTVSS | high polyreactivity
* QVQLVESVGGLVQAGGSLRLSCAASGFTFYRYAMGWYRQAPGKERELVAAISWSGGSTYYADSVKGRFTISRDNAKNTVYLQMNSLKPEDTAVYYCAARGGYYDYYYWGQGTQVTVSS | high polyreactivity
* QVQLVESGGGLVQAGGSLRLSCAASGIILSPYAMGWYRQAPGKERELVAAISRSGGSTYYADSVKGRFTISRDNAKNTVYLQMNSLKPEDTAVYYCAAEYYGYWEYDYWGQGTQVTVSS | high polyreactivity
* QVQLVESGGGLVQAGGSLRLTCAASGFIFYKYAMGWYRQAPGKERELVAAISRGGGSTYYADSVKGRFTISRDNAKNTVYLQMNSLKPEETAVYYCAAQAFIVRPSYVPRHNYWGQGTQVTVSS | high polyreactivity
* QVQLVESGGGLVQAGGSLRLSCAASGFIFGLNAMGWYRQAPGKERELVAVIAFSGGSTYYADSVKGRFTISRDHAKNTVYLQMNSLKPEDTAVYYCNAVTRYPHPREYDYWGQGTQVTVSS | high polyreactivity
* QVQLVETGGGLVQAGGSLRLSCAASGITFFGYDIGWYRQAPGKERELVAAINSRGGNTYYADSVKGRFTISRDNAKYTVYLQMNSLKPEDTAVYYCAARRYYNRAYGYWGQGTQVTVSS | high polyreactivity

Shifting focus to the sequence that follows.
input: Answer with reported polyreactivity (PSR sort gate) of QVQLVESGGGLVQAGGSLRLRCAATGSTFVYNAMGWYRPAPGKVRELVARITRSGGSTYYADSVKGRFTISRDNAKNTVYLQMKSLKPEDTAVYYCAKEREGHSVRIGPRYNYWGQGSQVTVSS
output: low polyreactivity

Reference for the values: the nanobody polyreactivity screen of Harvey et al. (2022)
